Experiment: Cytotoxicity against african green monkey BSC1 cells
Assay type: cell-based, BSC-1
Details: chlorocebus aethiops
attribute measured: CC50 (µM)

INSERT INTO measurements (structure_string, attribute_measured, unit_string, reading) VALUES
  ('Nc1ncn(C[C@@H](CO)OCP(=O)(O)O)c(=O)n1', 'CC50', 'µM', 436),
  ('Nc1nc(N)c2ncn(C[C@@H](CO)OCP(=O)(O)O)c2n1', 'CC50', 'µM', 217),
  ('Nc1ccn(C[C@@H](CO)OCP(=O)(O)O)c(=O)n1.O.O', 'CC50', 'µM', 424),
  ('Nc1ncnc2c1ncn2C[C@@H](CO)OCP(=O)(O)O', 'CC50', 'µM', 89.3),
  ('Nc1ncnc2c1ncn2C[C@H]1COP(=O)(O)CO1', 'CC50', 'µM', 371),
  ('Nc1cc(OC[C@@H](CO)OCP(=O)(O)O)nc(N)n1', 'CC50', 'µM', 140);

* * *

Assay: Selectivity index, ratio of CC50 for mouse UC1B cells to EC50 of Murine polyomavirus 2PTA2
Format: functional
attribute measured: Ratio CC50/EC50

INSERT INTO assay_data (compound, reading) VALUES
  ('Nc1nc(N)c2ncn(C[C@@H](CO)OCP(=O)(O)O)c2n1', 3.4),
  ('Nc1ncnc2c1ncn2C[C@@H](CO)OCP(=O)(O)O', 2.6),
  ('Nc1nccc2c1ncn2C[C@@H](CO)OCP(=O)(O)O', 4.2),
  ('Nc1cc(OC[C@@H](CO)OCP(=O)(O)O)nc(N)n1', 0.8),
  ('Nc1ncnc2c1ncn2CCOCP(=O)(O)O [ADEFOVIR]', 1.9),
  ('Nc1ncn(C[C@@H](CO)OCP(=O)(O)O)c(=O)n1', 21.1);

* * *

Test: Selectivity index, ratio of CC50 for mouse UC1B cells to EC50 of Murine polyomavirus LID1
Assay type: functional
So basically: is Ratio CC50/EC50 under 4? Then Criterion met. Not under? Then Criterion not met.

INSERT INTO results (compound, assigned_category) VALUES
  ('Nc1ccn(C[C@H]2COP(=O)(O)CO2)c(=O)n1 [CYCLIC CIDOFOVIR]', 'Criterion not met'),
  ('CCCCCCCCCCCCCCCCOCCOP1(=O)CO[C@@H](Cn2cnc(N)nc2=O)CO1 (some centres not stated)', 'Criterion not met'),
  ('Nc1cc(OC[C@@H](CO)OCP(=O)(O)O)nc(N)n1', 'Criterion met'),
  ('Nc1ncnc2c1ncn2C[C@@H](CO)OCP(=O)(O)O', 'Criterion met'),
  ('Nc1ncn(C[C@@H](CO)OCP(=O)(O)O)c(=O)n1', 'Criterion not met'),
  ('Nc1ncn(C[C@H]2COP(=O)(O)CO2)c(=O)n1', 'Criterion met'),
  ('Nc1nc(N)c2ncn(C[C@@H](CO)OCP(=O)(O)O)c2n1', 'Criterion met'),
  ('Nc1nccc2c1ncn2C[C@@H](CO)OCP(=O)(O)O', 'Criterion met'),
  ('Nc1ncnc2c1ncn2CCOCP(=O)(O)O [ADEFOVIR]', 'Criterion met'),
  ('Nc1ncnc2c1ncn2C[C@H]1COP(=O)(O)CO1', 'Criterion met'),
  ('Nc1ccn(C[C@@H](CO)OCP(=O)(O)O)c(=O)n1.O.O [CIDOFOVIR]', 'Criterion not met'),
  ('Nc1cc(OCCOCP(=O)(O)O)nc(N)n1', 'Criterion met');
